Test system: Escherichia coli TOP10;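 note: peptides expressed intracellularly from a pBAD plasmid library in pooled LB shake-flask culture, induced with 0.3% L-arabinose, DNA abundance read by NGS, three biological replicates, DESeq2 with apeglm shrinkage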
Assay: shrunken log2 fold change of peptide-encoding DNA abundance (4.5 h post-induction vs induction); higher = less antimicrobial activity (less host growth inhibition)
Settings: time post-induction: 4.5 h; library: site-saturation at positions 5, 18, 19, 20
Think of -0.01 as a floor: if shrunken log2 fold change stands on it or above, it is 1 (yes); beneath it, 0 (no).

Below are worked cases with known answers.
[
  {
    "SEQUENCE_ENTRY": "RRIRERPPRLPRPRPRPEKCPRP",
    "CLASS_ASSIGNMENT": "1 (yes)"
  },
  {
    "SEQUENCE_ENTRY": "RRIRVRPPRLPRPRPRPHRSPRP",
    "CLASS_ASSIGNMENT": "0 (no)"
  },
  {
    "SEQUENCE_ENTRY": "RRIRHRPPRLPRPRPRPWRFPRP",
    "CLASS_ASSIGNMENT": "1 (yes)"
  },
  {
    "SEQUENCE_ENTRY": "RRIRTRPPRLPRPRPRPWYPPRP",
    "CLASS_ASSIGNMENT": "0 (no)"
  },
  {
    "SEQUENCE_ENTRY": "RRIRNRPPRLPRPRPRPETEPRP",
    "CLASS_ASSIGNMENT": "0 (no)"
  }
]

Form field: shrunken log2 fold change at least -0.01? Entry: RRIRWRPPRLPRPRPRPIFAPRP 1 (yes)

Lookup RRIRVRPPRLPRPRPRPRWTPRP 0 (no)

Lookup RRIRYRPPRLPRPRPRPPAVPRP 0 (no)

Lookup RRIRRRPPRLPRPRPRPNSTPRP 0 (no)

Lookup RRIRGRPPRLPRPRPRPHPHPRP 1 (yes)
